Readout: melting point

> print(dat)
                                    molecule            val
 1              CC(=O)Nc1cc(C)cc(CCC(=O)O)n1         202 °C
 2              COc1cc(N)c(Cl)cc1C(=O)N(C)OC  134 to 135 °C
 3         COC(=O)C(=NO)c1nc2cc(Cl)ccc2oc1=O  176 to 177 °C
 4  CC(C)N1CCC(C2=C(C#N)C(c3cccc4nonc34)c3c[nH]nc3N2)CC1 (stereo not given)         260 °C
 5      Cc1cc(C)c([N+](=O)[O-])cc1NC(=O)CC#N  229 to 230 °C
 6            CCCCc1nn2ccccc2c1Cc1ccc(Br)cc1        < 50 °C
 7  O=[N+]([O-])c1ccc(C(O)c2ccccn2)c(OCC(F)(F)F)c1 (stereo not given)  119 to 123 °C
 8  CCCCCS(=O)(=O)NC(=O)C(Cc1ccc(OCCOC)cc1Oc1ncc(C(F)(F)F)cc1Cl)OC (stereo not given)    76 to 78 °C
 9  OCC1OC(c2n[nH]c3cncnc23)C(O)C1O (stereo not given)  227 to 228 °C
10  O=C(/C=C/c1cccc(S(=O)(=O)N2CCN(Cc3ccccc3)CC2)c1)NO         185 °C
11  CC(C)n1nc(-c2c(-c3ccccc3)nn3ccc(OCCC4CCCC4)cc23)ccc1=O         160 °C
12  Cc1c(C)c2c(c(C)c1OCc1ccccc1)CC[C@@](C)(CC(=O)CC(=O)OCc1ccccc1)O2  72.5 to 74 °C
13  Cc1nc(-c2ccccc2)nc(N2CCCC2C(=O)O)c1C (stereo not given)    90 to 92 °C
14      O=Cc1cc2c(cc1[N+](=O)[O-])OC(F)(F)O2    36 to 38 °C
15  CC(C)NC(Nc1cc(C(F)(F)F)cc(C(F)(F)F)c1)=C(C#N)S(C)(=O)=O  188 to 191 °C
16  COc1cc(N)c(Cl)cc1C(=O)NCC1CCN(CCCCCCSc2ccccc2)CC1    68 to 70 °C
17  COc1ccccc1[C@H](c1cccc2ccccc12)[C@@](C)(C#N)C(=O)N1CCN(c2cccc(C(F)(F)F)c2)CC1  158 to 162 °C
18                      Brc1ccccc1C=Cc1ccco1  108 to 110 °C
19  CNC(=O)c1cccc(Nc2ncnc3[nH]cc(C(=O)c4ccccc4C)c23)c1       > 300 °C
20  COc1cc(C(=O)N2CCC(CCN3CCCN(c4nc5ccccc5n4CCOCC#N)CC3)(c3ccccc3)C2)cc(OC)c1OC (stereo not given)  134 to 148 °C

----------
Readout: melting point

> print(dat)
                                    molecule        readout            val
 1  O=C(COc1cccc(CCNS(=O)(=O)c2ccc(Cl)cc2)c1)N1CCOCC1  melting point  110 to 111 °C
 2              Cc1cc(Cc2cnc(N)nc2N)cc(C)c1N  melting point  258 to 260 °C
 3                 CC(C)(C)OC(=O)c1cccc(O)c1  melting point    94 to 96 °C
 4  COC(=O)C(C#N)=Cc1cc(OC)c(OC)cc1[N+](=O)[O-]  melting point  162 to 164 °C
 5  CCCCCCCCCCCCCCCc1cccc(OCC)c1C1NC(=O)NC(C)=C1C(=O)OCC (stereo unspecified)  melting point   99 to 100 °C
 6   O=C(C(=O)N1C(=O)CC[C@H]1C(=O)O)c1ccccc1  melting point  151 to 152 °C
 7                           COc1nscc1C(N)=O  melting point  165 to 168 °C
 8          Nc1c(C(=O)c2ccccc2)cnc2[nH]ncc12  melting point  282 to 283 °C
 9                    CC(C)c1cn2nc(Cl)ccc2n1  melting point  106 to 108 °C
10  CC(=O)OC1CSC(Oc2ccc(-c3cccnc3Cl)nc2)C(OC(C)=O)C1OC(C)=O (stereo unspecified)  melting point         180 °C
11                       COC(=O)Cc1cc(O)nn1C  melting point  147 to 148 °C

Values from a melting point compilation (Tetko et al.; mined from patent text by program, amines drawn as free bases though some values may be those of a salt)
